From: ChEMBL document CHEMBL3526150

test: Clearance in jugular and femoral vein-cannulated lactating Sprague-Dawley rat at 0.4 mg/ml, iv administered as infusion; type: ADME, organism-based; details: female, Sprague-Dawley, in vivo, 0.4 mg/ml
value_type: clearance (mL/min/kg)

In [3]: df
Out[3]:
                                   molecule  value_type  recorded_result
0  COc1ccnc(C[S+]([O-])c2nc3cc(OC(F)F)ccc3[n-]2)c1OC.O.[Na+] (stereo in doubt; (-)) [PANTOPRAZOLE SODIUM]   clearance             7.33

* * *

assay: Dissociation constant, pKa of the compound; format: physicochemical
value_type: pKa

>>> print(df.to_string())
                                   compound  recorded_result
0  COc1ccnc(C[S+]([O-])c2nc3cc(OC(F)F)ccc3[n-]2)c1OC.O.[Na+] (stereo in doubt; (-)) [PANTOPRAZOLE SODIUM]              3.9
